// provenance: patent US10500249B2

Molecular target: NEK3 (h) (Homo sapiens, UniProt P51956)
Construct: purchased Millipore
Sequence (P51956 1-506): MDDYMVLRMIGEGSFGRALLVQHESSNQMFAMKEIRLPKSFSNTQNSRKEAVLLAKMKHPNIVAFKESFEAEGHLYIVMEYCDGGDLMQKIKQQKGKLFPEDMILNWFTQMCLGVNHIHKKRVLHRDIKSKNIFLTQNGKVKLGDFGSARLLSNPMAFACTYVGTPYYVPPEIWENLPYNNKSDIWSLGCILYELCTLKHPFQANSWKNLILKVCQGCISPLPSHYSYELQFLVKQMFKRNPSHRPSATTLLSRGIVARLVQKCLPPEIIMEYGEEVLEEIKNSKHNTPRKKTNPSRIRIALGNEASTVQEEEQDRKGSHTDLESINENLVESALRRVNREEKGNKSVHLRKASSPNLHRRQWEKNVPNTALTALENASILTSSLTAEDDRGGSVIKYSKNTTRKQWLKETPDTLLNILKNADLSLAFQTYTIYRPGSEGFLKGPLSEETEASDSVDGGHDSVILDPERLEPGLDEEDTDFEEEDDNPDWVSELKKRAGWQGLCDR
Assay: Kinase Profiling Assay
Assay type: biochemical
Details: 100 μM
result.type: % activity

Observe how each entry below is paired with its result.
>>> result("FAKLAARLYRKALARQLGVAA [MMI-0300]")
"92%"
>>> result("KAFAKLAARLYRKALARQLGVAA [MMI-0400]")
"85%"
>>> result("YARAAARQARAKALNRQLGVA (Mammalian) [MMI-0200]")
"100%"

Now for another entry.
Q: Reported % activity, sequence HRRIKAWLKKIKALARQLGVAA (Mammalian) [MMI-0500] : ____
Result: 20%

----------
Target: EphB3 (h) (Homo sapiens, UniProt P54753)
Sequence (P54753 34-998): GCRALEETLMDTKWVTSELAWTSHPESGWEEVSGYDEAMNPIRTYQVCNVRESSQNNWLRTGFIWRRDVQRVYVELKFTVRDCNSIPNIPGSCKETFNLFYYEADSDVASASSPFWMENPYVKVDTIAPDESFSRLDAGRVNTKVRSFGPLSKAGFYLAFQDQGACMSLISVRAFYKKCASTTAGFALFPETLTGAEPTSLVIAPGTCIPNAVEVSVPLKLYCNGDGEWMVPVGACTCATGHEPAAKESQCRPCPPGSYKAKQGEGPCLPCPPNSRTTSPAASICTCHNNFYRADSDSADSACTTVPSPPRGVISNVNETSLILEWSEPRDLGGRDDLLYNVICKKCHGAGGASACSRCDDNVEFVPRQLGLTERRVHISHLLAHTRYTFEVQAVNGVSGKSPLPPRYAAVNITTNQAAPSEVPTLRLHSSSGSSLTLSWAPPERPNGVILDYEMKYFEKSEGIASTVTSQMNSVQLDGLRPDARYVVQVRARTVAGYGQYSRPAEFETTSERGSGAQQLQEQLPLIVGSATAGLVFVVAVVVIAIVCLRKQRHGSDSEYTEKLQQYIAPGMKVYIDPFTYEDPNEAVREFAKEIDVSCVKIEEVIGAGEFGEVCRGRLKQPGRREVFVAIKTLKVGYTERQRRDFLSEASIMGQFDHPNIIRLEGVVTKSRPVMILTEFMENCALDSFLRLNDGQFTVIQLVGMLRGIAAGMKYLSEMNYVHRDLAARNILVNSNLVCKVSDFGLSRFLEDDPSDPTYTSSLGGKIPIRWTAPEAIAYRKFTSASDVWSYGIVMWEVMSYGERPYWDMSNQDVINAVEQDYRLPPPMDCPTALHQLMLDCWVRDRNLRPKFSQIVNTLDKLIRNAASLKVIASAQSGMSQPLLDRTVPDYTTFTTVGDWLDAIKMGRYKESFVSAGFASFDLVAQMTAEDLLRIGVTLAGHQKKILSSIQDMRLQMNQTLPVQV
Experiment: Kinase Profiling Assay
Type: biochemical
Details: 100 μM
result.type: % activity
Please answer using the number first and the unit second.

>>> result("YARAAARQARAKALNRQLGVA (Mammalian) [MMI-0200]")
"128%"
>>> result("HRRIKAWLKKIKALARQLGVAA (Mammalian) [MMI-0500]")
"79%"
>>> result("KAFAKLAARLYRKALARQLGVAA [MMI-0400]")
"47%"

Now for another entry.
Q: Reported % activity, sequence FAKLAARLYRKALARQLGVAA [MMI-0300] : ____
Result: 62%

----------
Molecular target: PKCμ (h) (Homo sapiens, UniProt Q15139)
Sequence (Q15139 1-912): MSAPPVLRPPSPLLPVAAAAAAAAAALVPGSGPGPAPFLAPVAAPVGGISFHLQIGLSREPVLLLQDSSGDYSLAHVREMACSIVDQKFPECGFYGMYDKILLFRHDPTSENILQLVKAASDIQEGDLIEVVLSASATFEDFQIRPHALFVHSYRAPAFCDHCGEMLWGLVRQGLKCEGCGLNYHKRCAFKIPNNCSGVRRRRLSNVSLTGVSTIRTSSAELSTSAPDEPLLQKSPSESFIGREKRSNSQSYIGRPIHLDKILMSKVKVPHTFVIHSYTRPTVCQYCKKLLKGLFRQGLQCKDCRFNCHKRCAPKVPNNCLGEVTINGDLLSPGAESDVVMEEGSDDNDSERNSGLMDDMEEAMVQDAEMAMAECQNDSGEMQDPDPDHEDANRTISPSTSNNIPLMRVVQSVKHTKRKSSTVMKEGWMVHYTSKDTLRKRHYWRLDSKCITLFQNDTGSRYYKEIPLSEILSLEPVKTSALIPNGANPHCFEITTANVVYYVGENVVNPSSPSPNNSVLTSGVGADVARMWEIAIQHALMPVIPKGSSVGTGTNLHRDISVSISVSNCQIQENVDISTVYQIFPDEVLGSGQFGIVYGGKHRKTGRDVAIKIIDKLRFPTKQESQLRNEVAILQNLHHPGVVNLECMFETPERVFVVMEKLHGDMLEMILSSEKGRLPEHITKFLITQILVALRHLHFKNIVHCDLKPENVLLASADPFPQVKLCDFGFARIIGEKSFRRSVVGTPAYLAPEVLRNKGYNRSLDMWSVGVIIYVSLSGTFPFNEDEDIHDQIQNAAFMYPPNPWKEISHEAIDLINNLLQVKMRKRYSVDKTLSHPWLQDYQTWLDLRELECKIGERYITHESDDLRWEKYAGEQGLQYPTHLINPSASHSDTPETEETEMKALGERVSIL
Assay: Kinase Profiling Assay
Format: biochemical
Conditions: 100 μM
result.type: % activity
Please answer using the number first and the unit second.

Observe how each entry below is paired with its result.
>>> result("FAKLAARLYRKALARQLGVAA [MMI-0300]")
"22%"
>>> result("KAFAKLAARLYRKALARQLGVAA [MMI-0400]")
"14%"
>>> result("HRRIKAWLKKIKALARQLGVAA (Mammalian) [MMI-0500]")
"10%"

Now for another entry.
Q: Reported % activity, sequence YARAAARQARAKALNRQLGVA (Mammalian) [MMI-0200] : ____
Result: 73%

----------
Target: PDK1 (h) (Homo sapiens)
Construct: purchased Millipore
Sequence (O15530 1-556): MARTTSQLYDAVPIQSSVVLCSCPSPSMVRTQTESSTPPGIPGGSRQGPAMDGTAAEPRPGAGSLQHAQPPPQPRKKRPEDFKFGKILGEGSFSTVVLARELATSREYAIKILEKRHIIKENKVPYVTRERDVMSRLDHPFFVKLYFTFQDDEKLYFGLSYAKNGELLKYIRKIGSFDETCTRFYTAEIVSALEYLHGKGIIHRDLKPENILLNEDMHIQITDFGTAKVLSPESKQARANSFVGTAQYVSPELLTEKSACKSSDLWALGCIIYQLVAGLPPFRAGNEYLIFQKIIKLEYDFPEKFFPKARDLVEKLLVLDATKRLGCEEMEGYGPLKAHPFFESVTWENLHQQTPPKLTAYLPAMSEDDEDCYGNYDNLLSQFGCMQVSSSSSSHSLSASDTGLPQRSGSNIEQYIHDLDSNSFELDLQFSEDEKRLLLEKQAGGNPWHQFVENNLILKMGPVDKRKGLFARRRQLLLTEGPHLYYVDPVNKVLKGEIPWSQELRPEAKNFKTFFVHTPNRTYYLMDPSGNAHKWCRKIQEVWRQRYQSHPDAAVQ
Assay: Kinase Profiling Assay
Type: biochemical
Conditions: 100 μM
Procedure: Every kinase activity measurement was conducted in duplicate. Specifically, in these assays, a positively charged substrate is phosphorylated with a radiolabeled phosphate group from an ATP if the kinase is not inhibited by an inhibitor peptide. The positively charged substrate then is attracted to a negatively charged filter membrane, quantified with a scintillation counter, and compared to a 100% activity control. […]
result.type: % activity (%)
Number in %, nothing else.

Observe how each entry below is paired with its result.
>>> result("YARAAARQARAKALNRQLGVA (Mammalian) [MMI-0200]")
143
>>> result("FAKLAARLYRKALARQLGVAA [MMI-0300]")
135
>>> result("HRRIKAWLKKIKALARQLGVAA (Mammalian) [MMI-0500]")
178

Now for another entry.
Q: Reported % activity, sequence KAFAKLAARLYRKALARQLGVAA [MMI-0400] : ____
Result: 159
